system: Plasmodium falciparum; experiment: GSK_TCMDC: Inhibition of Plasmodium falciparum 3D7 in whole erythrocytes, using parasite LDH activity as an index of growth.; type: functional, organism-based
XC50 less than 0.9 µM is t; XC50 greater than or equal to 0.9 µM is f.

# MOLECULE, TEST_TARGET, CATEGORY_LABEL
measured = [
    ("O[C@@H](c1cc(C(F)(F)F)nc2c(C(F)(F)F)cccc12)[C@H]1CCCCN1", "Plasmodium falciparum", "t"),
    ("C#CCOc1ccc(CC(C)NCC(O)c2cccc(C(F)(F)F)c2)cc1 (stereo not given)", "Plasmodium falciparum", "f"),
]

Input: Record O=C(C=Cc1ccc(-c2ccccc2)cc1)NC1CCC(CN2CCC(c3c[nH]c4ccccc34)CC2)CC1 (stereo not given) : is its XC50 strictly below 0.9 µM?
Output: t

====

test system: Plasmodium falciparum; test: GSK_TCMDC: Inhibition of Plasmodium falciparum 3D7 in whole erythrocytes, using parasite LDH activity as an index of growth.; format: functional, organism-based; conditions: Plasmodium falciparum, 3D7
XC50 less than 700 nM is true (1); XC50 greater than or equal to 700 nM is false (0).

# COMPOUND, TEST_TARGET, CATEGORY_LABEL
records = [
    ("CC(C)N(Cc1ccc(-c2ccc(C(F)(F)F)cc2)cc1)C(=O)Cn1c(CCc2cccc(F)c2F)cc(=O)c2ccc(CCCN3CCCCC3)cc21", "Plasmodium falciparum", "false (0)"),
]

Input: Record O=C(Nc1ccc(OC2CCN(Cc3ccc(F)cc3)C2)c(Cl)c1)c1ccco1 (centres undefined) : is its XC50 strictly below 700 nM?
Output: true (1)

Input: For Cc1nc2ccc(F)cc2n1C1CCN(C(=O)Cc2ccc(F)c(F)c2)CC1 then?
Output: false (0)

Input: For CCOc1cc(C)ccc1N1CCN(CCCCNC(=O)c2ccc(NC(=O)c3ccc(Cl)cc3)cc2)CC1 then?
Output: true (1)

Input: For O=C(c1ccc(F)c2ccccc12)N1CCc2cc3nccc(N4CCN5CCC[C@H]5C4)c3cc21 then?
Output: false (0)

Input: For Cc1cc(-c2nc3cc(C(=N)N)ccc3[nH]2)c(C)cc1-c1nc2cc(C(=N)N)ccc2[nH]1 then?
Output: true (1)

Input: For COc1cc(CNC2Cc3ccccc3C2)ccc1Oc1ccc2nc[nH]c2c1 then?
Output: false (0)

Input: For Cc1ccccc1C1CCN(C2CCC(NC(=O)/C=C/c3cc(F)cc(F)c3)CC2)CC1 (centres undefined) then?
Output: false (0)

====

tested on: Plasmodium falciparum; assay: GSK_TCMDC: Inhibition of Plasmodium falciparum 3D7 in whole erythrocytes, using parasite LDH activity as an index of growth.; format: functional, organism-based; details: Plasmodium falciparum, 3D7
QUANTITY_KIND: log10 XC50 (log10 of the value in nM)
For clarity, the numbers are log10 values of XC50 expressed in nM.

Use the examples below as a reference point.
# MOLECULE, TEST_TARGET, log10 XC50
data = [
    ("CC(C)(C)c1ccc(C(=O)NC2CCC(CCN3CCc4ccc(S(C)(=O)=O)cc4CC3)CC2)cc1C(F)(F)F (centres undefined)", "Plasmodium falciparum", 3.09),
    ("O=C(NC1CCCCC1)N(Cc1cccc(-c2cccc(CNC3CCCC3)c2)c1)C1CCN(Cc2ccccc2)CC1", "Plasmodium falciparum", 2.87),
    ("CN(C)CCNC(=O)c1cccc(-c2cnc3ccc(NCc4ccc(Cl)c(Cl)c4)nn23)c1", "Plasmodium falciparum", 2.84),
    ("CN(C)C(CNC(=O)c1cc(-c2ccncc2)c(-c2ccc(NC(=O)Nc3ccccc3)cc2)o1)c1ccccc1 (centres undefined)", "Plasmodium falciparum", 2.78),
    ("CC(C)C(NC(=O)Cc1cccc2ccccc12)C(=O)Nc1cccc(C#N)c1 (centres undefined)", "Plasmodium falciparum", 2.82),
    ("CN1CCN(Cc2ccc(OCc3cccc(COc4ccc(CN5CCN(C)CC5)cc4I)c3)c(I)c2)CC1", "Plasmodium falciparum", 3.00),
]

Input: Given the entry Clc1ccc(-n2cnc3c(Nc4ccc(Oc5ccccc5)cc4)ncnc32)cc1Cl , report its measured log10 XC50.
Output: 2.87

Input: For Cc1c(CN2CCC(N3CCC(C(=O)NC4CC4)CC3)CC2)[nH]c2c(Cl)cccc12 then?
Output: 3.08

Input: For CC(C#N)Cc1ccc(-c2cnc(N)c3cc(-c4ccnc(N)n4)ccc23)cc1 (centres undefined) then?
Output: 2.99

Source of measurements: ChEMBL document CHEMBL1157539
